For each of the binders below, state its pKi.
target: T1, hMC5-R (human, UniProt P33032 1-325); assay: competition with [125I]-NDP-α-MSH, CHO-K1 membranes
T1 construct: whole, on cells; Assayed as membranes of CHO-K1 cells expressing the receptor; also called hMC-R receptor subtype 5; melanocortin-5 receptor (MC5-R)
T1 sequence (P33032 whole entry): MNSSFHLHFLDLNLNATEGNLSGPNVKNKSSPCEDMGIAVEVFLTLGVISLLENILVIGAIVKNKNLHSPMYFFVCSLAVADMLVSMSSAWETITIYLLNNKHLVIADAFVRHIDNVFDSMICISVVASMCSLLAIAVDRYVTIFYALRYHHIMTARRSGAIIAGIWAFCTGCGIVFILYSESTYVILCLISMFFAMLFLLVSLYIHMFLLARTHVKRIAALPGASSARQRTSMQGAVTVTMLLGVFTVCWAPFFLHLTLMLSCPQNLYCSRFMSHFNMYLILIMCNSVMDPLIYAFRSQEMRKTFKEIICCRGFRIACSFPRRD
Bridge positions count the residues as written; N and C are the ends. Square brackets hold non-standard residues; d marks the D form. Bta = N[C@@H](Cc1csc2ccccc12)C(=O)O; Nle = CCCC[C@H](N)C(=O)O; βAla = NCCC(=O)O
One number for each entry, as −log10 of the molar value.

Parameters: items (list). Returns: pKi for each item.
1. Ac-[Nle]D[dA]H[dF]RWK-NH2 (lactam 2-8; SMILES CCCC[C@H](NC(C)=O)C(=O)N[C@H]1CC(=O)NCCCC[C@@H](C(N)=O)NC(=O)[C@H](Cc2c[nH]c3ccccc23)NC(=O)[C@H](CCCNC(=N)N)NC(=O)[C@@H](Cc2ccccc2)NC(=O)[C@H](Cc2c[nH]cn2)NC(=O)[C@@H](C)NC1=O) [Ac-Nle-c(Asp-D-Ala-His-D-Phe-Arg-Trp-Lys)-NH2]
2. Ac-[Nle]DH[dF]RW[βAla]K-NH2 (lactam 2-8; SMILES CCCC[C@H](NC(C)=O)C(=O)N[C@H]1CC(=O)NCCCC[C@@H](C(N)=O)NC(=O)CCNC(=O)[C@H](Cc2c[nH]c3ccccc23)NC(=O)[C@H](CCCNC(=N)N)NC(=O)[C@@H](Cc2ccccc2)NC(=O)[C@H](Cc2c[nH]cn2)NC1=O) [Ac-Nle-c(Asp-His-D-Phe-Arg-Trp-β-Ala-Lys)-NH2]
3. Ac-[Nle]D[dA]H[dF]R[Bta]K-NH2 (lactam 2-8; SMILES CCCC[C@H](NC(C)=O)C(=O)N[C@H]1CC(=O)NCCCC[C@@H](C(N)=O)NC(=O)[C@H](Cc2csc3ccccc23)NC(=O)[C@H](CCCNC(=N)N)NC(=O)[C@@H](Cc2ccccc2)NC(=O)[C@H](Cc2c[nH]cn2)NC(=O)[C@@H](C)NC1=O) [Ac-Nle-c(Asp-D-Ala-His-D-Phe-Arg-Bal-Lys)-NH2]

A:
1. 8.38
2. 7.96
3. 5.37

Origin of values: patent US20120135923A1
